Reference source for all entries: patent US9670227B2

target: Mcl-1 protein (UniProtKB primary accession number: Q07820) (Homo sapiens, UniProt Q07820); experiment: Inhibition of Mcl-1 by fluorescence polarisation, Method 1; assay type: binding; details: fluorescence polarisation test; Method 1, or Method 2 where the value is underlined (underlining not visible); read-out: IC50 (M) Mcl-1 FP
Sequence (Q07820 whole entry): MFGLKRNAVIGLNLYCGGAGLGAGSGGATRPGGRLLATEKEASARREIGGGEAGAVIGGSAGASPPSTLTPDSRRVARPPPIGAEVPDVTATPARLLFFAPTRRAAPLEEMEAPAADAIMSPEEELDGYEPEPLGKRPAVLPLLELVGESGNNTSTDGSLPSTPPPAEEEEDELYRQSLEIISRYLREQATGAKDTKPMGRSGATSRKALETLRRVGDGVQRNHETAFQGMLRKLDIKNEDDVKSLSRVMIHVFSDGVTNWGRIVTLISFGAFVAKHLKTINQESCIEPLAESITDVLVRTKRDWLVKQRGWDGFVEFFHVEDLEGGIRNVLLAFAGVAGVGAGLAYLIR
measured attribute: IC50 (M)

Observe how each entry below is paired with its result.
CCOC(=O)C(Cc1ccccc1OCc1ccnn1C(C)(C)C)Oc1ncnc2sc(-c3ccc(F)cc3)c(-c3ccc(OCCN(C)C)c(Cl)c3C)c12 (centres unmarked): 5.35e-06
COc1ccccc1-c1nccc(COc2ccccc2CC(Oc2ncnc3sc(-c4ccc(F)cc4)c(-c4ccc(OCCN5CCN(C)CC5)c(Cl)c4C)c23)C(=O)OCc2oc(=O)oc2C)n1 (centres unmarked): 8.55e-09
COCCOc1ccccc1-c1nccc(COc2ccccc2CC(Oc2ncnc3sc(-c4ccc(F)cc4)c(-c4ccc(OCCN(C)C)c(Cl)c4C)c23)C(=O)OCC(=O)N(C)C)n1 (centres unmarked): 1.57e-07

[1] Cc1c(-c2c(-c3ccc(F)cc3)sc3ncnc(OC(Cc4ccccc4OCc4ccnn4C(C)(C)C)C(=O)OCC(=O)N(C)C)c23)ccc(OCCN(C)C)c1Cl (centres unmarked)
[2] Cc1c(-c2c(-c3ccc(F)cc3)sc3ncnc(OC(Cc4ccccc4OCc4ccnc(-c5ccccc5F)n4)C(=O)OCC(=O)N(C)C)c23)ccc(OCCN2CCN(C)CC2)c1Cl (centres unmarked)
Query block: Problem: Given the entries 1 and 2 , determine which has the lower reported IC50. # reply format: chosen label
Result block: 2

====

Listing: IC50 of selected molecules
system: H929 multiple myeloma tumour line; assay: In vitro cytotoxicity, Microculture Tetrazolium Assay; assay type: cell-based; conditions: Homo sapiens, NCI-H929, 48 h, H929 cells, 48 hours exposure, MTT; read-out: IC50 (μM) MTT H929
A number alone suffices; assume µM.

Observe how each entry below is paired with its result.
Cc1c(-c2c(-c3ccc(F)cc3)sc3ncnc(OC(Cc4ccccc4OCc4ccnn4CC4CC4)C(=O)O)c23)ccc(OCCN2CCN(C)CC2)c1Cl (stereo not drawn) [Example 78]: 0.033
Cc1c(-c2c(-c3ccco3)sc3ncnc(OC(Cc4ccccc4OCC(F)(F)F)C(=O)O)c23)ccc(OCCN2CCN(C)CC2)c1Cl (stereo not drawn) [Example 221]: 0.059
COc1ccccc1-c1nccc(COc2ccccc2CC(Oc2ncnc3sc(-c4ccc(F)cc4)c(-c4ccc(OCCN5CCNCC5)c(Cl)c4C)c23)C(=O)O)n1 (stereo not drawn) [Example 744]: 0.042
Cc1c(-c2c(-c3ccco3)sc3ncnc(OC(Cc4ccccc4OC(C)c4ccncc4)C(=O)O)c23)ccc(OCCN2CCN(C)CC2)c1Cl (stereo not drawn) [Example 208]: 0.571
COc1ccccc1-c1nccc(COc2ccccc2CC(Oc2ncnc3sc(C#CCCc4ccccc4)c(-c4ccc(OCCN5CCN(C)CC5)c(Cl)c4C)c23)C(=O)O)n1 (stereo not drawn) [Example 781]: 0.033

Query block: Would you mind telling me what IC50 value was observed for Cc1c(-c2c(-c3ccc(F)cc3)sc3ncnc(OC(Cc4ccccc4OCc4ccnc(OCc5ccncc5)n4)C(=O)O)c23)ccc(OCCN2CCN(C)CC2)c1Cl (stereo not drawn) [Example 59] ?
Result block: 0.021

Query block: Moving on to CCCOc1nccc(COc2ccccc2CC(Oc2ncnc3sc(-c4ccc(F)cc4)c(-c4ccc(OCCN5CCN(C)CC5)c(Cl)c4C)c23)C(=O)O)n1 (stereo not drawn) [Example 61]
Result block: 0.01

Query block: Moving on to Cc1c(-c2c(-c3ccc(F)cc3)sc3ncnc(OC(Cc4ccccc4OCc4ccnn4C4CCCCC4)C(=O)O)c23)ccc(OCCN2CCN(C)CC2)c1Cl (stereo not drawn) [Example 73]
Result block: 0.122

Query block: Moving on to COc1ccc(-c2nccc(COc3ccccc3CC(Oc3ncnc4sc(-c5ccc(F)cc5)c(-c5ccc(OCCN6CCN(C)CC6)c(Cl)c5C)c34)C(=O)O)n2)cc1 (stereo not drawn) [Example 107]
Result block: 0.007

Query block: Moving on to COCc1cc(-c2sc3ncnc(OC(Cc4ccccc4OCc4ccnc(OC)n4)C(=O)O)c3c2-c2ccc(OCCN3CCN(C)CC3)c(Cl)c2C)ccc1F (stereo not drawn) [Example 594]
Result block: 0.13

Query block: Moving on to Cc1c(-c2c(-c3ccco3)sc3ncnc(OC(Cc4ccccc4OC(F)F)C(=O)O)c23)ccc(OCCN2CCN(C)CC2)c1Cl (stereo not drawn) [Example 338]
Result block: 1.04

Query block: Moving on to CCCCn1nccc1COc1ccccc1CC(Oc1ncnc2sc(C(F)(F)F)c(-c3ccc(OCCN4CCN(C)CC4)c(Cl)c3C)c12)C(=O)O (stereo not drawn) [Example 615]
Result block: 0.292

Query block: Moving on to CCc1sc2ncnc(OC(Cc3ccccc3)C(=O)O)c2c1-c1ccc(OCCCS(C)(=O)=O)c(Cl)c1C (stereo not drawn) [Example 406]
Result block: 21.9

Query block: Moving on to Cc1c(-c2c(-c3ccc(F)cc3)sc3ncnc(OC(Cc4ccccc4OCc4ccnn4C(C)C)C(=O)O)c23)ccc(OCCN(C)C)c1Cl (stereo not drawn) [Example 752]
Result block: 0.084

Query block: Moving on to C=Cc1ccc(-c2sc3ncnc(OC(Cc4ccccc4OC)C(=O)O)c3c2-c2ccc(OCCN3CCN(C)CC3)c(Cl)c2C)o1 (stereo not drawn) [Example 584]
Result block: 0.902
